Listed below: TGI values for each entry.
# System: MCF7
# Assay Text: Growth inhibition of human MCF7 cells incubated for 48 hrs by sulforhodamine B assay
# Format: functional
# Run Conditions: MCF7, 48 h, read-out: pTGI (converted)

# Smiles Notation, Result Comparator, TGI / µM
rows = [
    ("c1ccc(-c2nc(Nc3ccc(-c4nc5ccccc5[nH]4)cc3)nc(N3CCOCC3)n2)cc1", "=", 2.82),
    ("c1ccc2[nH]c(-c3ccc(Nc4nc(N5CCCCC5)nc(N5CCOCC5)n4)cc3)nc2c1", "=", 7.94),
    ("Clc1ccc(-c2nc(Nc3ccc(-c4nc5ccccc5[nH]4)cc3)nc(N3CCOCC3)n2)cc1", "=", 0.49),
    ("Fc1ccc(-c2nc(Nc3ccc(-c4nc5ccccc5[nH]4)cc3)nc(N3CCOCC3)n2)cc1", ">", 100),
]
